Tested on: DU-145
Test: Cytotoxicity against human DU145 cells assessed as cell growth at 10 uM after 48 hrs by SRB assay relative to control
Assay type: functional
Settings: DU-145, 48 h, read-out: Activity
Measurement Label: growth at 10 µM (%)
Hi! Could you send only the number? It should be in %, unit omitted.

Use the examples below as a reference point.
- Cpd Smiles: "Cn1cc(-c2c(-c3cn(C)c4ncccc34)nc(N)[nH]c2=O)c2ccccc21"
  Measurement Unit: "%"
  growth at 10 µM: 107
- Cpd Smiles: "Cn1cc(-c2[nH]c(=S)[nH]c(=O)c2-c2cn(C)c3ccccc23)c2ccccc21"
  Measurement Unit: "%"
  growth at 10 µM: 110
- Cpd Smiles: "Cn1c2ccccc2c2c3c(=O)[nH]c(N)nc3c3c4cccnc4n(C)c3c21"
  Measurement Unit: "%"
  growth at 10 µM: 83.2
- Cpd Smiles: "Cn1cc(-c2[nH]c(=O)[nH]c(=O)c2-c2cn(C)c3ccccc23)c2ccccc21"
  Measurement Unit: "%"
  growth at 10 µM: 115
- Cpd Smiles: "Cn1cc(-c2nc(N)[nH]c(=O)c2-c2cn(C)c3ccccc23)c2ccccc21"
  Measurement Unit: "%"
  growth at 10 µM: 122

Task: Using the record for Cn1c2ccccc2c2c3nc(N)[nH]c(=O)c3c3c4ccccc4n(C)c3c21 , state its measured growth at 10 µM.
Result: 44.9

Recorded values, source ChEMBL document CHEMBL2086254.
